Documented inhibition at 1 µM across a set of molecules
Molecular target: 5-HT7 receptor (Homo sapiens)
Construct: purchased PerkinElmer
Sequence (P34969 whole entry): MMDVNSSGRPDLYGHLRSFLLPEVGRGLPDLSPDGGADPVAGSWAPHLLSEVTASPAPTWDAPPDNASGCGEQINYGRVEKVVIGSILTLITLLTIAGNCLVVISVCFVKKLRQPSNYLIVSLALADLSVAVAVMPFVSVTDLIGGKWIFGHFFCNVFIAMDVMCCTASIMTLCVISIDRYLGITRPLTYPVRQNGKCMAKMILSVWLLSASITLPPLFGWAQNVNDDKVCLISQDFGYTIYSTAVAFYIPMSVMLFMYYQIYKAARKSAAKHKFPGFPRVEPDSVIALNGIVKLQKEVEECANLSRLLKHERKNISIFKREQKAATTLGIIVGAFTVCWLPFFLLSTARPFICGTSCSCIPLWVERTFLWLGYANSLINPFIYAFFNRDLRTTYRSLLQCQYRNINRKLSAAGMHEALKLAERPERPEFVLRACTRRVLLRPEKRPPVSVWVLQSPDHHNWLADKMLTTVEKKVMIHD
Test: Radioligand binding assay, serotoninergic 5-HT7 receptors;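 also: test compound at 1 µM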
Conditions: binding assay result in %, Table 5a
readout-label: inhibition at 1 µM (%)

O=S(=O)(NCC1CN(CCOc2cccc3ccccc23)C1)c1csc2ccccc12 [Compound 171] ... 94
O=S(=O)(NC1CCN(CCCc2noc3cc(F)ccc23)C1)c1ccc(Cl)c(F)c1 (centres unmarked) [Compound 11] ... 97
O=S(=O)(NCC1CCN(CCOc2cccc3ccccc23)C1)c1ccc2ccccc2c1 (centres unmarked) [Compound 124] ... 99
CC(C)(C)c1ccc(S(=O)(=O)NC2CCN(CCCc3noc4cc(F)ccc34)C2)cc1 (centres unmarked) [Compound 14] ... 76
O=S(=O)(NC1CCN(CCCc2noc3cc(F)ccc23)CC1)c1cccc2ccccc12 [Compound 34] ... 100
Cc1c(S(=O)(=O)NC2CCN(CCCc3noc4cc(F)ccc34)CC2)sc2ccc(Cl)cc12 [Compound 326] ... 91
O=S(=O)(NCC1CN(CCCc2noc3cc(F)ccc23)C1)c1ccc2scnc2c1 [Compound 132] ... 94
O=S(=O)(NC1CCN(CCCc2noc3cc(F)ccc23)C1)c1cccc2ccccc12 (centres unmarked) [Compound 20] ... 98

* * *

Biological target: 5-HT1A receptor (rat hippocampus) (Rattus norvegicus)
Construct: hippocampus; from tissue; host or cells: rat hippocampus
Sequence (P19327 whole entry): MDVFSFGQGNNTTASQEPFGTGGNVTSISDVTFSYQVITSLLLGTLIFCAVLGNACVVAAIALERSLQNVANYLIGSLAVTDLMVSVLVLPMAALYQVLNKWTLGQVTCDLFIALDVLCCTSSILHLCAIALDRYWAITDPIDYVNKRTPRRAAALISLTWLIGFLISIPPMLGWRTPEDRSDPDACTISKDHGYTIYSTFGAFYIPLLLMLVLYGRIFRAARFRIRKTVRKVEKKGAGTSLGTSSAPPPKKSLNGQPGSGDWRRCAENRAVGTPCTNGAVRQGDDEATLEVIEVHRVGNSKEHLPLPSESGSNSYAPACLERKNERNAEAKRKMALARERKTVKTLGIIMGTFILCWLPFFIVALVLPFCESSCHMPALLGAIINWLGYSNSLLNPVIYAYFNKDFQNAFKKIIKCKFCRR
Test: Radioligand binding assay, serotoninergic 5-HT1A receptors;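 also: test compound at 1 µM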
Details: binding assay result in %, Table 5a
readout-label: inhibition at 1 µM (%)

Cc1ccc2sc(S(=O)(=O)N[C@H]3CCN(CCCc4noc5cc(F)ccc45)C3)cc2c1 [Compound 229] ... 46
O=S(=O)(NCC1CN(CCOc2cccc3c2OCCO3)C1)c1ccc(I)cc1 [Compound 193] ... 84
O=S(=O)(NCC1CN(CCCc2noc3cc(F)ccc23)C1)c1ccc(Cl)cc1 [Compound 136] ... 35
O=S(=O)(NC1CCN(CCCc2noc3cc(F)ccc23)C1)c1ccc(F)cc1 (stereo not shown) [Compound 8] ... 5

* * *

Biological target: 5-HT7 receptor (Homo sapiens)
Construct: purchased PerkinElmer
Assay: Radioligand binding assay, serotoninergic 5-HT7 receptors;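 also: test compound at 1 µM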
Settings: binding assay result in %, Table 5a
readout-label: inhibition at 1 µM (%)

O=S(=O)(NCC1CN(CCCc2noc3cc(F)ccc23)C1)c1cc2ccccc2s1 [Compound 153] ... 86
O=S(=O)(NCC1CN(CCOc2nsc3ccccc23)C1)c1ccc2ccccc2c1 [Compound 162] ... 91
O=S(=O)(NC1CN(CCOc2cccc3[nH]ccc23)C1)c1ccccc1 [Compound 45] ... 93
Cn1ccc2cc(S(=O)(=O)NC3CCN(CCCc4noc5cc(F)ccc45)C3)ccc21 (stereo not drawn) [Compound 218] ... 98
O=S(=O)(NC1CCN(CCCc2noc3cc(F)ccc23)C1)c1ccc(F)cc1 (stereo not drawn) [Compound 8] ... 85
Cc1c(S(=O)(=O)NCC2CCN(CCCc3noc4cc(F)ccc34)C2)sc2ccc(Cl)cc12 (stereo not drawn) [Compound 238] ... 94
O=S(=O)(NC1CCN(CCOc2cccc3[nH]ccc23)C1)c1ccc2ccccc2c1 (stereo not drawn) [Compound 54] ... 102
O=S(=O)(N[C@H]1CCN(CCCc2noc3cc(F)ccc23)C1)c1cc2ccccc2o1 [Compound 215] ... 98
O=S(=O)(NCC1CN(CCOc2cccc3c2OCCO3)C1)c1ccc(Br)cc1 [Compound 185] ... 90
O=S(=O)(N[C@H]1CCN(CCCc2noc3cc(F)ccc23)C1)c1cc2ccccc2s1 [Compound 197] ... 101
Cc1c(S(=O)(=O)NCC2CN(CCOc3cccc4ccccc34)C2)sc2ccc(F)cc12 [Compound 166] ... 97
O=S(=O)(NCC1CN(CCCc2noc3cc(F)ccc23)C1)c1ccc(-c2ccccc2)cc1 [Compound 135] ... 97
O=S(=O)(NCC1CCN(CCCc2noc3cc(F)ccc23)C1)c1ccccc1 (stereo not drawn) [Compound 245] ... 81
Cc1c(S(=O)(=O)NCC2CN(CCCc3noc4cc(F)ccc34)C2)sc2ccc(Cl)cc12 [Compound 131] ... 95
O=S(=O)(NCC1CCN(CCOc2cccc3c2OCCO3)C1)c1ccc(Br)cc1 (stereo not drawn) [Compound 305] ... 96
O=S(=O)(NCC1CCN(CCCc2noc3cc(F)ccc23)C1)c1ccc(F)cc1 (stereo not drawn) [Compound 252] ... 90
Cc1ccc2sc(S(=O)(=O)N[C@H]3CCN(CCCc4noc5cc(F)ccc45)C3)cc2c1 [Compound 229] ... 99
Cn1ccc2cc(S(=O)(=O)NCC3CN(CCOc4cccc5ccccc45)C3)ccc21 [Compound 169] ... 93
CC1(C)Cc2cccc(OCCN3CCC(CNS(=O)(=O)c4ccc5ccccc5c4)C3)c2O1 (stereo not drawn) [Compound 114] ... 97
Cc1c(S(=O)(=O)NCC2CCN(CCOc3cccc4ccccc34)C2)sc2ccc(F)cc12 (stereo not drawn) [Compound 271] ... 104
O=S(=O)(NCC1CCN(CCCc2noc3cc(F)ccc23)C1)c1cc2ccccc2o1 (stereo not drawn) [Compound 257] ... 88
Cc1cccc(S(=O)(=O)NC2CN(CCOc3cccc4[nH]ccc34)C2)c1 [Compound 48] ... 98
O=S(=O)(NCC1CCN(CCOc2cccc3ccccc23)C1)c1ccc2cc(Cl)ccc2c1 (stereo not drawn) [Compound 270] ... 94
O=S(=O)(NCC1CN(CCCc2noc3cc(F)ccc23)C1)c1ccc(Cl)cc1 [Compound 136] ... 80
O=S(=O)(NCC1CCN(CCOc2cccc3c2OCCO3)C1)c1cccc(F)c1 (stereo not drawn) [Compound 298] ... 93
Cc1c(S(=O)(=O)N[C@H]2CCN(CCCc3noc4cc(F)ccc34)C2)sc2ccc(F)cc12 [Compound 203] ... 99
Cn1ccc2c(S(=O)(=O)NCC3CCN(CCOc4cccc5ccccc45)C3)cccc21 (stereo not drawn) [Compound 275] ... 111
Cc1c(S(=O)(=O)N[C@H]2CCN(CCCc3noc4cc(F)ccc34)C2)sc2ccc(Cl)cc12 [Compound 205] ... 98
Cn1ccc2cc(S(=O)(=O)NCC3CN(CCCc4noc5cc(F)ccc45)C3)ccc21 [Compound 150] ... 84
O=S(=O)(NCC1CN(CCCc2c[nH]c3ccc(Cl)cc23)C1)c1ccc2ccccc2c1 [Compound 161] ... 83
O=S(=O)(NCC1CCN(CCCc2noc3cc(F)ccc23)C1)c1ccc(F)c(Cl)c1 (stereo not drawn) [Compound 263] ... 92
O=S(=O)(NCC1CCN(CCCc2noc3cc(F)ccc23)C1)c1ccc(Cl)cc1 (stereo not drawn) [Compound 242] ... 83
O=S(=O)(NC1CCN(CCCc2noc3cc(F)ccc23)C1)c1cc2ccccc2s1 (stereo not drawn) [Compound 25] ... 98
